Target: PDGF-β receptor tyrosine kinase (Mus musculus)
Construct: amplify a fragment of DNA that codes for the intracellular tyrosine kinase domain; made in house; host or cells: SF9 insect cells (baculovirus); crude cell lysate used
Sequence (P05622 599-961 limits assumed): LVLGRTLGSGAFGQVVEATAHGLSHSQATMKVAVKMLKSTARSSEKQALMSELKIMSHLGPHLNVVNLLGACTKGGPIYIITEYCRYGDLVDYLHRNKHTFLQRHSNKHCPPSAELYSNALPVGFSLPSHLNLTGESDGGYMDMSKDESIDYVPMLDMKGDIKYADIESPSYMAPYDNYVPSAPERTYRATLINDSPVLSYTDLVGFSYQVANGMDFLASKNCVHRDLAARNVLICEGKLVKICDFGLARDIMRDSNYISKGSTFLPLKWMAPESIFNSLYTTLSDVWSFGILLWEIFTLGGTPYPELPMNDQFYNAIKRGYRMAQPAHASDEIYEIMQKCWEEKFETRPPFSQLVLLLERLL
Assay: PDGF Receptor Tyrosine Kinase Assay
Type: biochemical
Conditions: glutamate-tyrosine co-polymer substrate, 50 µM ATP
readoutType: IC50 (µM)
Numbers only, in µM.

CN1CCN(c2ccc(Nc3ncc4c(n3)N(C3CCCC3)C(=O)NC4)cc2)CC1	0.175

Field: next compound
Quick note, IC50 for CC1CN(c2ccc(Nc3ncc4c(n3)N(C3CCCC3)C(=O)NC4)cc2)CC(C)N1 (stereo not drawn) landed at 0.21

* * *

Target: cdc2/cyclinB (Homo sapiens)
Sequence (P06493 whole entry): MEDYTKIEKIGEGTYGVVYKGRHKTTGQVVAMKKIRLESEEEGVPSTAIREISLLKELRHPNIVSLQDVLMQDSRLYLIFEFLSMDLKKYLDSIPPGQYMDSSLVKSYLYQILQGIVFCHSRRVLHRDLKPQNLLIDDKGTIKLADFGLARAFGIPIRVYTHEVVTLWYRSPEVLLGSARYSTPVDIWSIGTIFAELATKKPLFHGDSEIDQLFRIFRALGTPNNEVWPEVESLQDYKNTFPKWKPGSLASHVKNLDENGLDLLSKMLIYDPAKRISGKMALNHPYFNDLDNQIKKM
Sequence (P14635 whole entry, further chain): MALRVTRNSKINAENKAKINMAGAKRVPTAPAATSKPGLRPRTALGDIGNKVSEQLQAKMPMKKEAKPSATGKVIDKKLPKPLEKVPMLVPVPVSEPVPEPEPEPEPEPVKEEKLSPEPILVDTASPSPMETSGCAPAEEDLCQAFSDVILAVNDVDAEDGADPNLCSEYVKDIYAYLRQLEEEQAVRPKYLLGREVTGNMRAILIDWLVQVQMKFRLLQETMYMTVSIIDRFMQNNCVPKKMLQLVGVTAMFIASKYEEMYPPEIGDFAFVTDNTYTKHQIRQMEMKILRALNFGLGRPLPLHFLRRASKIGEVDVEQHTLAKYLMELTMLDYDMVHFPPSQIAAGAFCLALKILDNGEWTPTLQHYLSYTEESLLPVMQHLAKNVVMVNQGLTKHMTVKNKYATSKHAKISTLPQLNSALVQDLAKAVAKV
Experiment: Cyclin-Dependent Kinase Assay cdc2/cyclinB
Format: biochemical
I'd appreciate it if you could supply pIC50 values for the items below.
Give bare numbers, as −log10 of the molar value.

O=C1NCc2cnc(Nc3ccc(N4CCCC(O)C4)cc3)nc2N1C1CCCC1 (stereo not shown)	4.83

Field: next molecule
CCN(CC)CCOc1ccc(Nc2ncc3cnc(=O)n(C4CCCC4)c3n2)cc1C tested on cdc2/cyclinB (Homo sapiens) gave pIC50: 5.12
